Reported normalized growth values are given for each entry in this list.
assay: chemical genetic growth profiling, strain panel (AID 1159580);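 note: tested at 20 µM; growth read once vehicle control cultures reached saturation at 30 °C; 1 = growth at the plate median or of vehicle wells; lower values mean less growth of the strain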; settings: S. cerevisiae deletion strains, growth OD, locus YCL061C, strain MRC1, active compounds read low
The whole screen tested about 5,500 compounds, of which about 2,000 (36%) were called active. Not shown: some 18% with an inconclusive outcome. The list shows a part of the results.
Answer field: number only, no words.

Worked examples, 4 compounds total:
| smiles.text | obs.value |
| --- | --- |
| O=C(CCCN1CCC(O)(c2ccc(Cl)cc2)CC1)c1ccc(F)cc1 | 1.01 |
| CCOC(=O)/C(C#N)=C/N=C(N/N=C\c1c(Cl)cccc1Cl)SC | 1.06 |
| COc1ccccc1N1CCN(CCCNc2cc(=O)n(C)c(=O)n2C)CC1 | 1.02 |
| CO[C@@H]1[C@@H](OC(N)=O)[C@@H](O)[C@H](Oc2ccc3c(O)c(NC(=O)c4ccc(O)c(CC=C(C)C)c4)c(=O)oc3c2C)OC1(C)C | 1.03 |

Turning now to a further compound:
Incoming: Given the entry O=C1CC2(CCCC2)CC(=O)N1CCCCN1CCN(c2ncccn2)CC1 , report its measured normalized growth.
Outgoing: 0.998
